tested on: creatine kinase; assay: Creatine kinase assay in Ad5-wt-ER infected HAECT-1 cells; format: cell-based, human; settings: Homo sapiens, HAECT1, relative to maximal stimulation observed with E2, read-out: CK Efficacy
TRUE means recorded Emax is 30% or above; FALSE means it is below 30%.

INSERT INTO results (compound, class_name) VALUES
  ('CC[C@H]1c2cccn2-c2ccc(F)cc2N1C(=O)c1cccc(O)c1 [127 (S)]', 'TRUE'),
  ('CC[C@H]1c2cccn2-c2ccc(Br)cc2N1S(=O)(=O)c1ccc(O)cc1', 'TRUE'),
  ('CCC1c2cccn2-c2ccc(Br)cc2N1C(=O)c1ccc(O)cc1O (centres unmarked)', 'FALSE'),
  ('C[C@]12CC[C@@H]3c4ccc(O)cc4CC[C@H]3[C@@H]1CC[C@@H]2O [Example E2, 17β-estradiol, reference compound]', 'TRUE'),
  ('CC[C@H]1c2cccn2-c2ccc(Cl)cc2N1C(=O)c1ccc(O)cc1O [125 (S)]', 'FALSE'),
  ('C[C@@H]1c2cccn2-c2ccc(F)cc2N1C(=O)c1ccc(O)cc1 [123 (R)]', 'FALSE'),
  ('CC[C@@H]1c2cccn2-c2ccc(Br)cc2N1C(=O)c1ccc(O)cc1 [111 (R)]', 'TRUE'),
  ('CCC1c2cccn2-c2ccc(F)cc2N1S(=O)(=O)c1cccc(O)c1 (centres unmarked)', 'TRUE'),
  ('CC1c2cccn2-c2ccc(Br)cc2N1C(=O)c1ccc(O)cc1 (centres unmarked)', 'FALSE'),
  ('CCC1c2ccc(C#N)n2-c2ccc(F)cc2N1S(=O)(=O)c1ccc(O)cc1 (centres unmarked)', 'FALSE');
